Reported inhibition values follow for various compounds
Molecular target: Virion infectivity factor (Human immunodeficiency virus type 1 group M subtype B (isolate BH10)) + Virion infectivity factor (Human immunodeficiency virus type 1 group M subtype B (isolate BRU/LAI)) + Virion infectivity factor (Human immunodeficiency virus type 1 group M subtype B (isolate PCV12)) + Virion infectivity factor (Human immunodeficiency virus type 1 group M subtype B (isolate HXB2)) + DNA dC->dU-editing enzyme APOBEC-3G (Homo sapiens) (UniProt P69720+P69721+P69722+P69723+Q9HC16)
Assay: inhibitors of Vif binding to APOBEC3G peptide, primary screen, biochemical, TR-FRET, GST-Vif 1-94, biotin-A3G peptide, dose response retest (AID 1117319);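 further: Vif residues 1-94 fused to GST binding biotinylated APOBEC3G peptide 110-148; 0% = full assay without inhibitor and 100% = GST in place of GST-Vif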
Details: hits give high values
The whole screen tested about 260,000 compounds, of which about 1,500 (0.58%) were called active. Inconclusive results (about 5%) are left out. Only a sample is shown. Potency and affinity values are given separately.
Form entry: value (%) — number only.

// solved cases for inhibition follow
>>> recorded_value("CCc1nnc(SCC(=O)Nc2ccc(C(C)=O)cc2)nc1CC")
2.81
>>> recorded_value("CCOC(=O)C1=C(C)C(c2ccccc2OC)NC(=O)N1 (stereo not drawn)")
25.5
>>> recorded_value("O=C(CCN1C(=O)/C(=C/c2ccccc2Cl)SC1=S)NC1=NCCS1")
9.65
>>> recorded_value("O=C(CSc1n[nH]c(-c2ccco2)n1)Nc1ccccc1")
5.48

Any idea what its inhibition is? The compound is O=C(Nc1ccccc1C(=O)N1CCOCC1)c1noc2c1CCCC2 -4.02

Any idea what its inhibition is? The compound is CCN(CC)CCN1C(=O)c2ccccc2NC1c1ccc(F)cc1 (stereo not drawn) 1.63

Any idea what its inhibition is? The compound is CCOc1ccccc1CNC(=O)Cn1c(=O)oc2ccccc21 72.4

Any idea what its inhibition is? The compound is CCOc1cc(C)c(Cl)cc1S(=O)(=O)N(CC)CC -2.91

---

Target: Virion infectivity factor (Human immunodeficiency virus type 1 group M subtype B (isolate BH10)) + Virion infectivity factor (Human immunodeficiency virus type 1 group M subtype B (isolate BRU/LAI)) + Virion infectivity factor (Human immunodeficiency virus type 1 group M subtype B (isolate PCV12)) + Virion infectivity factor (Human immunodeficiency virus type 1 group M subtype B (isolate HXB2)) + DNA dC->dU-editing enzyme APOBEC-3G (Homo sapiens) (UniProt P69720+P69721+P69722+P69723+Q9HC16)
Experiment: inhibitors of Vif binding to APOBEC3G peptide, primary screen, biochemical, TR-FRET, GST-Vif 1-94, biotin-A3G peptide, dose response retest (AID 1117319);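 further: Vif residues 1-94 fused to GST binding biotinylated APOBEC3G peptide 110-148; 0% = full assay without inhibitor and 100% = GST in place of GST-Vif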
Conditions: hits give high values
The whole screen tested about 260,000 compounds, of which about 1,500 (0.58%) were called active. Another 5% or so got no clear call; they are omitted. The list is a sample of the results. Entries with a potency or affinity are not part of this list.
Reported inhibition values follow for various compounds
Form entry: value (%) — number only.

// solved cases for inhibition follow
>>> recorded_value("O=C(Nc1cccc2nsnc12)c1ccc2c(c1)OCO2")
-0.24
>>> recorded_value("Cc1cc(C)c(C(=O)/C=C/c2cccs2)c(=O)[nH]1")
1.47

Now for the compound whose inhibition we want.
Any idea what its inhibition is? The compound is Cc1cccc(NC(=O)CN2CCN(C(=O)c3oc4c(Cl)cccc4c3C)CC2)c1C -10

Origin of values: PubChem BioAssay AID1117319
